- Tested on: Mus musculus
- Procedure Summary: Hypolipidemic activity in high cholesterol diet fed ICR mouse assessed as reduction of LDL cholesterol level at 100 mg/kg/day, po after 12 hrs of last cholesterol challenge relative to control
- Design: scale not given: the % may be the effect or the level left
Observation Type: Activity (%)
Numbers only, in %.

Answered examples (4):
In [3]: df
Out[3]:
                          chemical_smiles  assay_system  unit_string  recorded_measurement
0  CCCc1cc(OC)c(OCC(=O)OC)cc1[N+](=O)[O-]  Mus musculus            %                -16.76
1             CCCc1cc(OC)c(OCC(=O)OC)cc1O  Mus musculus            %                -41.81
2   CCCc1cc(OC)c(OCC(=O)O)cc1[N+](=O)[O-]  Mus musculus            %                -28.88
3                    CCCc1cc(OC)c(OC)cc1O  Mus musculus            %                -22.77

Field: Activity. Fill in for each record below.
1. CCCc1cc(OC)c(OCC(=O)OC)cc1N
2. C=CCc1cc(OC)c(OC)cc1O
3. CCCc1ccc(OCC(=O)O)c(OC)c1

[reply]
[-31.54, -44.22, -44.51]

----------
- Assay System: 3-hydroxy-3-methylglutaryl-coenzyme A reductase (Schizosaccharomyces pombe 972h-, UniProt Q10283)
- Sequence (Q10283 whole entry): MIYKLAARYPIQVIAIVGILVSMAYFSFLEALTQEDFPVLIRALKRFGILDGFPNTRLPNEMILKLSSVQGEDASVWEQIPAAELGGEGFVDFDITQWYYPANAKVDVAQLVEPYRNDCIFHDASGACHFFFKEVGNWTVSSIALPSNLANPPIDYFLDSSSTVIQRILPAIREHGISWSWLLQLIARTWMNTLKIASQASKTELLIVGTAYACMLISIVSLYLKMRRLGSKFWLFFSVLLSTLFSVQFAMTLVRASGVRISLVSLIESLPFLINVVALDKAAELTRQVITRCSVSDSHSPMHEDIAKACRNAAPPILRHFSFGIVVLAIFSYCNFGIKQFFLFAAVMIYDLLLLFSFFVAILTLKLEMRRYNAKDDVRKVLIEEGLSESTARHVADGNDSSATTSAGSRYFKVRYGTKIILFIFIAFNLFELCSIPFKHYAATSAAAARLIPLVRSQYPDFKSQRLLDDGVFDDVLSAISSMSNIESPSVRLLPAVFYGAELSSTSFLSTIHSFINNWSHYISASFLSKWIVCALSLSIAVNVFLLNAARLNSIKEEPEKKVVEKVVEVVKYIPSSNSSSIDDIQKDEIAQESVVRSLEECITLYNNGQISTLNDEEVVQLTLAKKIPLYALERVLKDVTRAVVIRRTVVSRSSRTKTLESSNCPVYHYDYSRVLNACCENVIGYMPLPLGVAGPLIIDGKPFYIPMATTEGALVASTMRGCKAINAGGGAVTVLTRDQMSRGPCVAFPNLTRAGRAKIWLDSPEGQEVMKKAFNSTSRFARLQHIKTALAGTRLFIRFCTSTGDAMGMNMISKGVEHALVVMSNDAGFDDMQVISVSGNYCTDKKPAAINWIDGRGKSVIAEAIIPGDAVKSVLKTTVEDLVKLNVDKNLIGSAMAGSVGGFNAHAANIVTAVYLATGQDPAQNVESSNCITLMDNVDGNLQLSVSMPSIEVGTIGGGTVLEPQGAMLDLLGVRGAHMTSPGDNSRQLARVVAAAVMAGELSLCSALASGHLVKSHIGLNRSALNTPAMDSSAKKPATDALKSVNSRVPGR
- Procedure Summary: Inhibition of Schizosaccharomyces pombe HMG-CoA reductase by spectrophotometry
- Setup Conditions: read-out: IC50
Observation Type: pIC50
One number for each entry, as −log10 of the molar value.

Answered examples (5):
>>> print(df.to_string())
                                   compound  observation_type  recorded_measurement
0              C=CCc1ccc(OCC(=O)OCC)c(OC)c1             pIC50                  3.81
1                        COC(=O)COc1ccccc1C             pIC50                  4.04
2  C/C=C/c1ccc(OCCNC(=O)c2ccc(Cl)cc2)c(OC)c1             pIC50                  3.89
3    C=CCc1cc(OC)c(OCC(=O)O)cc1[N+](=O)[O-]             pIC50                  3.84
4                   CCCCCc1cc(OC)c(OC)cc1OC             pIC50                  4.07

Field: pIC50. Fill in for each record below.
1. C=CCc1cc(OC)c(OC)cc1O
2. CCCc1cc(OC)c(OC)cc1O

[reply]
[4.10, 4.13]

----------
- Test system: Mus musculus
- Procedure Summary: Hypolipidemic activity in ICR mouse assessed as decrease in Tyloxapol-induced HDL-cholesterol level at 100 mg/kg, ip administered 1 hr before Tyloxapol challenge and 22, 48 hrs after Tyloxapol challenge measured after 22 hrs relative to control
- Type: functional
- Parameters: scale not given: the % may be the effect or the level left
- Setup Conditions: route intraperitoneal
# strict inequality: Activity < -30% yields met, everything else yields not met

Example entries begin here.
                          chemical_smiles  classification
0             CCCc1cc(OC)c(OCC(=O)OC)cc1N         not met
1  CCCc1cc(OC)c(OCC(=O)OC)cc1[N+](=O)[O-]         not met
2                   C=CCc1cc(OC)c(OC)cc1O             met
3             CCCc1cc(OC)c(OCC(=O)OC)cc1O         not met
4                    CCCc1cc(OC)c(OC)cc1O             met
5   CCCc1cc(OC)c(OCC(=O)O)cc1[N+](=O)[O-]         not met

Switching to the query record.
[ask] Does `CCCc1ccc(OCC(=O)O)c(OC)c1` have Activity strictly under -30%?
[reply] not met
